# target.of.assay: PTP-OB (Homo sapiens, UniProt Q13332)
# Construct: we expressed the cytoplasmic domain of PTP-OB and PTPε in bacteria as a GST-fusion protein
# Sequence (Q13332 1303-1928 isoform Q13332-3 C1437R/N1685K): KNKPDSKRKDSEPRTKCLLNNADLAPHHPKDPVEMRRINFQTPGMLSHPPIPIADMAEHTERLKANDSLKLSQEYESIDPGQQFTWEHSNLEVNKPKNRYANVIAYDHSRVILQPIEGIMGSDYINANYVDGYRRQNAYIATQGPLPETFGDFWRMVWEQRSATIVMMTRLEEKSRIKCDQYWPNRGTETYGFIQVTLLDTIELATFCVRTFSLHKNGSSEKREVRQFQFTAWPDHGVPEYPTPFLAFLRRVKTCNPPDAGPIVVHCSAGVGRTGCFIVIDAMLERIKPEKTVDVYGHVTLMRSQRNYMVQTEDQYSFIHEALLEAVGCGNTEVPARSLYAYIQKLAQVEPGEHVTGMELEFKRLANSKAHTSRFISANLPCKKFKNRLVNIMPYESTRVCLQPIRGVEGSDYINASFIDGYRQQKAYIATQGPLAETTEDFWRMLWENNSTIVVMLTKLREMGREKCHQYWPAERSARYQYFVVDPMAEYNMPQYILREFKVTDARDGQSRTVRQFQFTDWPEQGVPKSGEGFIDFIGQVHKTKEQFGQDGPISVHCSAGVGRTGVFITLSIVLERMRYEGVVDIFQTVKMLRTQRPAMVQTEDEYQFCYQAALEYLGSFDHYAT
# measurement.description: PTP enzymatic assay with recombinant GST-PTP-OB fusion protein (FDP substrate)
# conditions.used: pH 5.65, FIG. 8
metric: IC50 (nM)
One number for each entry, in nM.

The recorded IC50 for entry NCCCC(O)(P(=O)(O)O)P(=O)(O)O [alendronate] equals 200
